Sourced from patent US20140356358A1

Catalogue of ELISA score values
# SUBJECT OF TEST: T1, human neonatal Fc receptor (hFcRn) (human, UniProt P55899 24-290; P61769 21-119)
# T1 construct: Biotinylated in the ELISA, Octet and yeast assays; also called human FcRn; huFcRn
# TEST METHOD NOTES: phage ELISA pH 7.4;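 note: higher score means stronger binding and above about 3 to 5 exceeds background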
ASSAY METRIC: ELISA score

1) L5 isolate with insertion SEQ ID NO: 420 (other) EPKSCDKTHTCPPCPAPELLGGPSVFLFPPKPKDTLMISRTPEVTCVVVDVSHEDPEVKFNWYVDGVEVHNAKTKPREEQYNSTYRVVSVLTVLHQDWLNGKEYKCKVSNKALPAPIEKTISKAKGQPREPQVYTLPPSRDELTKNQVSLTCLVKGFYPSDIAVEWESNGGCHGTKQFCGGGQPENNYKTTPPVLDSDGSFFLYSKLTVDKSRWQQGNVFSCSVMHEALHNHYTQKSLSLSPGK    0.5
2) L5 isolate with insertion SEQ ID NO: 492 (other) EPKSCDKTHTCPPCPAPELLGGPSVFLFPPKPKDTLMISRTPEVTCVVVDVSHEDPEVKFNWYVDGVEVHNAKTKPREEQYNSTYRVVSVLTVLHQDWLNGKEYKCKVSNKALPAPIEKTISKAKGQPREPQVYTLPPSRDELTKNQVSLTCLVKGFYPSDIAVEWESNGGCMMREQGCGGGQPENNYKTTPPVLDSDGSFFLYSKLTVDKSRWQQGNVFSCSVMHEALHNHYTQKSLSLSPGK    1.5
3) L5 isolate with insertion SEQ ID NO: 414 (other) EPKSCDKTHTCPPCPAPELLGGPSVFLFPPKPKDTLMISRTPEVTCVVVDVSHEDPEVKFNWYVDGVEVHNAKTKPREEQYNSTYRVVSVLTVLHQDWLNGKEYKCKVSNKALPAPIEKTISKAKGQPREPQVYTLPPSRDELTKNQVSLTCLVKGFYPSDIAVEWESNGGCVNTWWSCGGGQPENNYKTTPPVLDSDGSFFLYSKLTVDKSRWQQGNVFSCSVMHEALHNHYTQKSLSLSPGK    0.3
